Assay: Fraction unbound in mouse plasma
Format: ADME, cell-free
Recorded metric: fraction unbound
// print number alone

**Query** For the molecule O=C(O)C[C@@H]1O[C@@H](c2cccc(Cl)c2)[C@@H](c2ccc(Cl)cc2)N(CC2CC2)C1=O , report fraction unbound.
**Result** 0.059

###

Assay: Drug uptake in tumor of athymic nude mouse xenografted with human SJSA1 cells at 30 mg/kg, po qd after 7 hrs
Assay type: ADME, organism-based, Neoplasm, SJSA-1
Design: dose 30 mg/kg, route oral
Conditions: read-out: Drug uptake
Recorded metric: concentration at 7 h

**Query** For the compound O=C(O)C[C@@H]1O[C@@H](c2cccc(Cl)c2)[C@@H](c2ccc(Cl)cc2)N(CC2CC2)C1=O , give its reported concentration at 7 h.
**Result** 300 nM

###

Assay: Clearance in athymic nude mouse at 1 mg/kg, iv
Format: ADME, organism-based
Parameters: dose 1 mg/kg, route intravenous
Settings: in vivo
Recorded metric: clearance (mL/min/kg)
Reply numerically in mL/min/kg, unit not repeated.

**Query** Recall and state the measured clearance for O=C(O)C[C@@H]1O[C@@H](c2cccc(Cl)c2)[C@@H](c2ccc(Cl)cc2)N(CC2CC2)C1=O .
**Result** 28.3

###

Target: E3 ubiquitin-protein ligase Mdm2 (Homo sapiens)
Sequence (Q00987 whole entry): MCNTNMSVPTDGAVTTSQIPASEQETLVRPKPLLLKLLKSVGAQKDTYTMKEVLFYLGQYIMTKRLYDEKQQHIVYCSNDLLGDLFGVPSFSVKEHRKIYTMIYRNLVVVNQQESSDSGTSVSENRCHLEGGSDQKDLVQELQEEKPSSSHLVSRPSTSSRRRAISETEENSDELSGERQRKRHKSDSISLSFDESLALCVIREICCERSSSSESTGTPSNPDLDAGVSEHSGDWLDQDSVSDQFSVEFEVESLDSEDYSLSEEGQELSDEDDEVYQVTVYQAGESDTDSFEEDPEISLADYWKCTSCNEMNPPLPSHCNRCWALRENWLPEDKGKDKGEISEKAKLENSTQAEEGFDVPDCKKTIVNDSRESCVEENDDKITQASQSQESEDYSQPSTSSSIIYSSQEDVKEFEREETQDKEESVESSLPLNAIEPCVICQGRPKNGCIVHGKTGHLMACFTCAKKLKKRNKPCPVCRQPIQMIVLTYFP
Experiment: Inhibition of human recombinant GST-thrombin-MDM2 (1 to 188) expressed in Escherichia coli assessed as reduction of MDM2-p53 interaction incubated for 20 mins followed by p53 addition measured after 60 mins by HTRF assay in presence of 15% serum
Recorded metric: IC50

**Query** Retrieve IC50 measured for CN1C(=O)CO[C@@H](c2ccc(Cl)cc2)[C@H]1c1cccc(Cl)c1 (racemic) and print it.
**Result** > 30 µM

###

Experiment: Half life in athymic nude mouse at 1 mg/kg, iv
Type: ADME, organism-based
Design: dose 1 mg/kg, route intravenous
Conditions: in vivo
Recorded metric: half-life (h)
Number in h, nothing else.

**Query** Supply recorded half-life for O=C(O)C[C@@H]1O[C@@H](c2cccc(Cl)c2)[C@@H](c2ccc(Cl)cc2)N(CC2CC2)C1=O here.
**Result** 4.1

###

Assay: Fraction unbound in human plasma
Type: ADME, cell-free
Recorded metric: fraction unbound
// print number alone

**Query** Retrieve fraction unbound measured for O=C(O)C[C@@H]1O[C@@H](c2cccc(Cl)c2)[C@@H](c2ccc(Cl)cc2)N(CC2CC2)C1=O and print it.
**Result** 0.042

###

Target: Protein Mdm4 (Homo sapiens, UniProt O15151)
Sequence (O15151 whole entry): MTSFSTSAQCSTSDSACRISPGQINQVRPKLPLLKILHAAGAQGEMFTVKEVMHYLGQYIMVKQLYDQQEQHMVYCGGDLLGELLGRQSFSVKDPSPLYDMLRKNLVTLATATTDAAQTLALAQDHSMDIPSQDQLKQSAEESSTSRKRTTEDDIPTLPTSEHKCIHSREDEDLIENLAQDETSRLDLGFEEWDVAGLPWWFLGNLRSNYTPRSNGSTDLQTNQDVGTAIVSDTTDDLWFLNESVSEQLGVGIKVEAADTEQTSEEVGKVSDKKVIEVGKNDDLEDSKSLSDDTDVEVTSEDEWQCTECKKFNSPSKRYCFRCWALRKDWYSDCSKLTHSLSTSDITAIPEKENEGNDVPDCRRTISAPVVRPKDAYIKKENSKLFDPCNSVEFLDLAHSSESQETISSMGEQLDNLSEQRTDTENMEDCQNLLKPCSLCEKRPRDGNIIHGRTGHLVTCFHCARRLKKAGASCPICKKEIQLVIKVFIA
Recorded metric: IC50

**Query** Provide one value: measured IC50 of O=C(O)C[C@@H]1O[C@@H](c2cccc(Cl)c2)[C@@H](c2ccc(Cl)cc2)N(CC2CC2)C1=O
**Result** > 30 µM

###

Assay: AUC in athymic nude mouse at 5 mg/kg, po
Assay type: ADME, organism-based
Parameters: dose 5 mg/kg, route oral
Conditions: plasma
Recorded metric: AUC (µM·h)
Give the quantity in µM·h, number only.

**Query** For the compound O=C(O)C[C@@H]1O[C@@H](c2cccc(Cl)c2)[C@@H](c2ccc(Cl)cc2)N(CC2CC2)C1=O , report AUC.
**Result** 4.1

###

Test: Plasma concentration in athymic nude mouse xenografted with human SJSA1 cells at 300 mg/kg, po qd after 7 hrs
Format: ADME, organism-based, SJSA-1
Parameters: dose 300 mg/kg, route oral
Recorded metric: concentration at 7 h (µM)
Write the value in µM as a bare number.

**Query** Return value of concentration at 7 h for input O=C(O)C[C@@H]1O[C@@H](c2cccc(Cl)c2)[C@@H](c2ccc(Cl)cc2)N(CC2CC2)C1=O , no commentary.
**Result** 102

###

Test: Volume of distribution at steady state in athymic nude mouse at 1 mg/kg, iv
Format: ADME, organism-based
Parameters: dose 1 mg/kg, route intravenous
Conditions: in vivo, read-out: Vdss
Recorded metric: Vd (L/kg)
Give the value in L/kg but do not write L/kg after it.

**Query** For the molecule O=C(O)C[C@@H]1O[C@@H](c2cccc(Cl)c2)[C@@H](c2ccc(Cl)cc2)N(CC2CC2)C1=O , give its measured Vd value.
**Result** 3.9
